// provenance: the NIST ThermoML archive (doi:10.1016/j.jct.2010.12.010)

details: 323.15 K; Liquid; Manometric method
assay.metric: vapor or sublimation pressure (kPa)

For orientation, consider the following solved cases.
compound | vapor or sublimation pressure [kPa]
O [water] | 12.23
NCCN [ethane-1,2-diamine] | 6.767
NCCCCN [1,4-butanediamine] | 0.8282

A = NCCCN [1,3-propanediamine]
B = CC(N)CN (stereo not given) [1,2-propanediamine]
API: POST /compare with A and B ; response names the item with higher vapor or sublimation pressure. Indicate your choice by writing its label.
B

* * *

details: 363.15 K; Liquid; Manometric method
assay.metric: vapor or sublimation pressure (kPa)

compound | vapor or sublimation pressure / kPa
NCCN | 39.94

I = CC(N)CN (stereo not given)
II = O
III = NCCCCN
IV = NCCCN
Sort (4 compounds) by vapor or sublimation pressure: min first. Reply: labels, ordered per the request.
III, IV, I, II
